System under test: Human immunodeficiency virus type 1 reverse transcriptase (Human immunodeficiency virus 1, UniProt Q72547)
Assay text: The compound was evaluated for inhibition of HIV-1 mutant […]-Lys recombinant reverse transcriptase
Quantity name: pIC50
Note: pIC50 values are expressed as the negative base-10 logarithm of concentration in M.

Compound: Cc1cn(C2OC(CO[Si](C)(C)C(C)(C)C)CC2O[Si](C)(C)C(C)(C)C)c(=O)n(CC(=O)O)c1=O (centres undefined)
pIC50: 4.32
//
Compound: Cc1cn([C@@H]2O[C@H](CO[Si](C)(C)C(C)(C)C)[C@@H](O)[C@H]2O[Si](C)(C)C(C)(C)C)c(=O)n(CC(=O)O)c1=O
pIC50: 3.80

Next up:
Note down pIC50 recorded for Cc1cn([C@@H]2O[C@H](CO[Si](C)(C)C(C)(C)C)[C@@H](O[Si](C)(C)C(C)(C)C)[C@H]2O)c(=O)n(CC(=O)O)c1=O
3.47
